Data origin: patent US5110904A

Would you kindly list ED50 for each of these molecules?
# Target or system: LH release (Rattus norvegicus)
# Sequence (P30969 whole entry): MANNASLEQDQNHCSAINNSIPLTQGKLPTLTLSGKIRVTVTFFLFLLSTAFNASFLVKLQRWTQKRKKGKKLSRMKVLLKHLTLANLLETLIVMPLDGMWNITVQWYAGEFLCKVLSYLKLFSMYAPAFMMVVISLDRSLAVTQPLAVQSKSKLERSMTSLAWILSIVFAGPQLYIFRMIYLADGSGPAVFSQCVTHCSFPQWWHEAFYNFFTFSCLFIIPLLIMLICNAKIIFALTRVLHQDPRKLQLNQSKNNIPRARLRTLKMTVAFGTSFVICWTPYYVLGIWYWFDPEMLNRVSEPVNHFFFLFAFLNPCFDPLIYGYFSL
# Experiment description: In vivo LH release in castrated rats
# Condition label: rat, iv, dose producing half-maximal LH release, i.v., time integrated LH response, read-out: ED50 ug/kg i.v.
Non-standard residues stand in square brackets, D forms with d. Residues, ends and D or L forms follow the SMILES beside them. NMeS = CN[C@@H](CO)C(=O)O; Sar = CNCC(=O)O

# ED50 of CC(C)C[C@H](NC(=O)[C@@H](Cc1ccc2ccccc2c1)NC(=O)[C@H](Cc1ccc(O)cc1)NC(=O)[C@H](CO)N(C)C(=O)[C@H](Cc1c[nH]c2ccccc12)NC(=O)[C@H](Cc1c[nH]cn1)NC(=O)[C@@H]1CCC(=O)N1)C(=O)N[C@@H](CCCNC(=N)N)C(=O)N1CCC[C@H]1C(=O)NCC(N)=O [Ex. 3] = 0.129 µg/kg

molecule CCNC(=O)[C@@H]1CCCN1C(=O)[C@H](CCCNC(=N)N)NC(=O)[C@H](CC(C)C)NC(=O)[C@@H](Cc1c[nH]c2ccccc12)NC(=O)[C@H](Cc1ccc(O)cc1)NC(=O)[C@H](CO)N(C)C(=O)[C@H](Cc1c[nH]c2ccccc12)NC(=O)[C@H](Cc1c[nH]cn1)NC(=O)CN(C)C(C)=O [Ex. 14] (Ac-[Sar]HW[NMeS]Y[dW]LRP-NHEt) , ED50 observed: 0.39 µg/kg

Sure, the documented ED50 for CCNC(=O)[C@@H]1CCCN1C(=O)[C@H](CCCNC(=N)N)NC(=O)[C@H](CC(C)C)NC(=O)[C@@H](Cc1c[nH]c2ccccc12)NC(=O)[C@H](Cc1ccc(O)cc1)NC(=O)[C@H](CO)N(C)C(=O)[C@H](Cc1c[nH]c2ccccc12)NC(=O)[C@H](Cc1c[nH]cn1)NC(=O)[C@@H]1CCC(=O)N1 [Ex. 15] is 1.38 µg/kg

For record CCNC(=O)CC[C@H](NC(=O)NCC)C(=O)N[C@@H](Cc1c[nH]cn1)C(=O)N[C@@H](Cc1c[nH]c2ccccc12)C(=O)N(C)[C@@H](CO)C(=O)N[C@@H](Cc1ccc(O)cc1)C(=O)N[C@H](Cc1c[nH]c2ccccc12)C(=O)N[C@@H](CC(C)C)C(=O)N[C@@H](CCCNC(=N)N)C(=O)N1CCC[C@H]1C(=O)NCC [Ex. 12] the listed ED50 is 9.9 µg/kg

---

Consider the following compounds; for each one, report its Ki.
# Target or system: LHRH receptors (Rattus norvegicus, UniProt P30969)
# Sequence (P30969 whole entry): as above
# Experiment description: Radioligand receptor binding assay, rat pituitary membranes
# Condition label: radioiodinated [D-Leu6-des Gly10]-LHRH ethyl amide 50 pM, 2 hours at 4° C., read-out: Receptor Binding pkI (converted)
Starred links: 1 amine or outer side, 2 acyl side, 3 side chain; linkers in the order of their positions; H or OH if unused. Non-standard residues stand in square brackets, D forms with d. Residues, ends and D or L forms follow the SMILES beside them. Groups on a side chain read outwards from the residue. *: point of attachment. dPhe(4-Cl) = N[C@H](Cc1ccc(Cl)cc1)C(=O)O; d2Nal = N[C@H](Cc1ccc2ccccc2c1)C(=O)O; Lys(iPr) = CC(C)NCCCC[C@H](N)C(=O)O; NMeY = CN[C@@H](Cc1ccc(O)cc1)C(=O)O; NMeF = CN[C@@H](Cc1ccccc1)C(=O)O; Piperazinyl(4-Me) = CN1CCN(*)CC1; d3Pal = N[C@H](Cc1cccnc1)C(=O)O; pGlu = O=C1CC[C@@H](C(=O)O)N1; CO = O=C([*:1])[*:2]
Field format: number, assumed nM, no unit text.

The compound CC(=O)N[C@H](Cc1ccc2ccccc2c1)C(=O)N[C@H](Cc1ccc(Cl)cc1)C(=O)N[C@H](Cc1cccnc1)C(=O)N[C@@H](CO)C(=O)N(C)[C@@H](Cc1ccc(O)cc1)C(=O)N[C@H](CCCCNC(=O)N1CCN(C)CC1)C(=O)N[C@@H](CC(C)C)C(=O)N[C@@H](CCCCNC(C)C)C(=O)N1CCC[C@H]1C(=O)N[C@H](C)C(N)=O [Ex. 70] (Ac-[d2Nal][dPhe(4-Cl)][d3Pal]S[NMeY][dK]([CO-Piperazinyl(4-Me)])L[Lys(iPr)]P[dA]-NH2) , tested on LHRH receptors (Rattus norvegicus, UniProt P30969), showed Ki of 0.012

The recorded Ki with LHRH receptors (Rattus norvegicus, UniProt P30969) for CCNC(=O)[C@@H]1CCCN1C(=O)[C@H](CCCN=C(N)N)NC(=O)[C@H](CC(C)C)NC(=O)[C@@H](Cc1c[nH]c2ccccc12)NC(=O)[C@H](Cc1ccc(O)cc1)NC(=O)[C@H](CO)NC(=O)[C@H](Cc1c[nH]c2ccccc12)NC(=O)[C@H](Cc1ccccc1)N(C)C(=O)[C@@H]1CCC(=O)N1 [Ex. 19] ([pGlu][NMeF]WSY[dW]LRP-NHEt) was 0.038
